# testSystem: T1, orthogonal hCD122 receptor (hoRb), hCD122 with H133D and Y134F (human, UniProt P14784 27-550); also: reference of the scale not given here
# T1 sequence: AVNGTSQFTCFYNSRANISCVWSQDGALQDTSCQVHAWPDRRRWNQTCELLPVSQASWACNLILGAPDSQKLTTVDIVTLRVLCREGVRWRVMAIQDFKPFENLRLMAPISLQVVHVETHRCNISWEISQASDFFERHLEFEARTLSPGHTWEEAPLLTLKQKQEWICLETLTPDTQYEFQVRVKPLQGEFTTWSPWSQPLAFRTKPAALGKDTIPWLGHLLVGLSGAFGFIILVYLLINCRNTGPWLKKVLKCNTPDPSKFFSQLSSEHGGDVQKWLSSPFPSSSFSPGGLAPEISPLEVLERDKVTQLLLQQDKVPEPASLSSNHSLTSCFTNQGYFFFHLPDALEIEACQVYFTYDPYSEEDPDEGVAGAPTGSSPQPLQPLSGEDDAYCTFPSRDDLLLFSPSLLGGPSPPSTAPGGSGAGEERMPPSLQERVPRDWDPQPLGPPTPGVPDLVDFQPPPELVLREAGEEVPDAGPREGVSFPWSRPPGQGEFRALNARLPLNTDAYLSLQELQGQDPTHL
# assayInfo: cell-based or functional assay
readoutKind: Relative Proliferation Fold Change 3F8 1:10 (fold)

Solved cases (2 shown):
binder	recordedMeasurement
SQVLDA (ligand) APTSSSTKKTQLQLSQLLVLLDAILNGINNYKNPKLTRMLTFKFYMPKKATELKHLQCLEEELKPLEEVLNLAQSKNFHLRPRDLISNINVIVLELKGSETTFMCEYADETATIVEFLNRWITFCQSIISTLT	38.8
SQVLLA (ligand) APTSSSTKKTQLQLSQLLVLLLAILNGINNYKNPKLTRMLTFKFYMPKKATELKHLQCLEEELKPLEEVLNLAQSKNFHLRPRDLISNINVIVLELKGSETTFMCEYADETATIVEFLNRWITFCQSIISTLT	13

(P) Q126I, SQVLKA (ligand) APTSSSTKKTQLQLSQLLVLLKAILNGINNYKNPKLTRMLTFKFYMPKKATELKHLQCLEEELKPLEEVLNLAQSKNFHLRPRDLISNINVIVLELKGSETTFMCEYADETATIVEFLNRWITFCISIISTLT
(Q) Q126D, SQVLKA (ligand) APTSSSTKKTQLQLSQLLVLLKAILNGINNYKNPKLTRMLTFKFYMPKKATELKHLQCLEEELKPLEEVLNLAQSKNFHLRPRDLISNINVIVLELKGSETTFMCEYADETATIVEFLNRWITFCDSIISTLT
Q) Identify the entry with the smaller Relative Proliferation Fold Change 3F8 1:10: P or Q . Answer by stating the label of the chosen item.
A) Q
